Target: T1, PSMA Fab (biotinylated (site not stated))
T1 construct: also called Anti-PSMA Fab; 006 PSMA Fab
Assay: clonal phage ELISA on biotinylated PSMA Fab captured on neutravidin plates, blocking buffer alone, anti-M13-HRP detection
Where no end group is shown, it is not given here.
VALUE KIND: phage binding ELISA signal

Before answering, review these 2 worked examples.
TFKWCTPAWMCAGF (cysteine pairing not given here; also: fused to phage pIII, linker and fusion site not given here, Clonal phage displaying the peptide, tested as crude supernatant; also called peptide-180 library clone; not shown: fused to the pIII filament protein of the bacteriophage) [Phage-2574] | 1.09
QEKMCIPAWMCSEY (Clonal phage displaying the peptide, tested as crude supernatant; also called peptide-180 library clone; not shown: fused to the pIII filament protein of the bacteriophage) [Phage-2576] | 1.09

Give its phage binding ELISA signal value. Item: SEKWCIPEWMCMYA (Clonal phage displaying the peptide, tested as crude supernatant; also called peptide-180 library clone; not shown: fused to the pIII filament protein of the bacteriophage) [Phage-2581]
1.08

Same question for EGKWCIPEWMCISV (Clonal phage displaying the peptide, tested as crude supernatant; also called peptide-180 library clone; not shown: fused to the pIII filament protein of the bacteriophage) [Phage-2582] please.
1.08

Okay, and DLKRCIPDWMCAVA (cysteine pairing not given here; also: fused to phage pIII, linker and fusion site not given here, Clonal phage displaying the peptide, tested as crude supernatant; also called peptide-180 library clone; not shown: fused to the pIII filament protein of the bacteriophage) [Phage-2585] ?
1.07

Likewise for GVKWCTPAWMCEWT (Clonal phage displaying the peptide, tested as crude supernatant; also called peptide-180 library clone; not shown: fused to the pIII filament protein of the bacteriophage) [Phage-2580] ?
1.08

# repeat for LQEWCIPPWMCIKS (Clonal phage displaying the peptide, tested as crude supernatant; also called peptide-180 library clone; not shown: fused to the pIII filament protein of the bacteriophage) [Phage-2578]
1.09

Request: VVKWCKPAWMCEQA (Clonal phage displaying the peptide, tested as crude supernatant; also called peptide-180 library clone; not shown: fused to the pIII filament protein of the bacteriophage) [Phage-2584]
1.07

Can you check VDTWCTPPWMCWGL (cysteine pairing not given here; also: fused to phage pIII, linker and fusion site not given here, also called peptide-180 library clone; not shown: fused to the pIII filament protein of the bacteriophage) [Phage-2573] next?
1.09
